Values were extracted from patent US20260109763A1.

Catalogue of binders with associated pKd
Biological target: T1, human PILRA G78 extracellular domain (recombinant hPILRA ECD) (human, UniProt Q9UKJ1 20-197)
T1 construct: also called hPILRA G78
T1 sequence (Q9UKJ1 20-197 R78G limits assumed): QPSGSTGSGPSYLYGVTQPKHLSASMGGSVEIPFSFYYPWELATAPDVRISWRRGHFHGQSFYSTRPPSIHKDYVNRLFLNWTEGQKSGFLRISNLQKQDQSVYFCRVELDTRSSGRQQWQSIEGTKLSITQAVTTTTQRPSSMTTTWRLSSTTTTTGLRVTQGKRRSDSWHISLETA
Experiment: SPR, Biacore 8K; hPILRA ECD; antibody with wild-type Fc
Please report pKd as the negative decimal logarithm of the molar concentration, giving only the number.

Anti-PILRA antibody clone 32 (antibody, V domains shown, Humanized) VH: EVQLVQSGAEVKKPGASVKVSCKASGYTFTEYYMYWVRQAPGQGLELIGRIDPEDGGTDYIEKFKNRVTLTADTSTSTAYLELSSLRSEDTAVYYCATTIRGTVFAFWGQGTLVTVSS VL: DIQMTQSPSSLSASVGDRVTITCRPSEDIYNGLAWYQQKPGKSPKLLIYNANSLHTGVPSRFSGSGSGTDYTLTISSLQPEDFATYFCQQYYDYPLTFGQGTKVEIK
8.55

What value of measured pKd is listed for Anti-PILRA antibody clone 18 (antibody, V domains shown, Humanized) VH: EVQLVQSGAEVKKPGASVKVSCKASGYTFTEYYMYWVRQAPGQGLELIGRIDPEDGGTDYVEKFKNRVTITADTSTSTAYLELSSLRSEDTAVYFCASTIRGTVFVYWGQGTLVTVSS VL: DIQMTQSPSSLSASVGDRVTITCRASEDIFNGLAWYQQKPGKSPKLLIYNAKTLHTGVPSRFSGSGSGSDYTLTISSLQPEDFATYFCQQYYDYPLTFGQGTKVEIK ?
8.12

Endpoint output: pKd of Anti-PILRA antibody clone 13 (antibody, V domains shown, Humanized) VH: EVQLVQSGAEVKKPGASVKVSCKASGYTFTEYYMYWVRQAPGQGLELIGRIDPEDGGTDYIEKFKNRVTLTADTSTSTAYLELSSLRSEDTAVYYCATTIRGTVFAFWGQGTLVTVSS VL: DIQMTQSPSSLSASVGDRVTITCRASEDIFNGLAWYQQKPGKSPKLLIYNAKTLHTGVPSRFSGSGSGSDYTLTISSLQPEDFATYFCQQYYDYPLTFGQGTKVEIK . Value?
9.18

I would be grateful if you could share the reported pKd for Anti-PILRA antibody clone 21 (antibody, V domains shown, Humanized) VH: EVQLVQSGAEVKKPGASVKVSCKASGYTFTEYYMYWVRQAPGQGLELIGRIDPEDGGTDYIEKFKNRSTLTADTSTSTAYLELSSLRSEDTAVYFCATTIRGTVFAFWGQGTLVTVSS VL: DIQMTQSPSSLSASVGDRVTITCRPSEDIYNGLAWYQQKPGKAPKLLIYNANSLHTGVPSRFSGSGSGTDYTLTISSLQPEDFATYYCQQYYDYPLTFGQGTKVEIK .
9.18
